# Test System: BCL6 (Homo sapiens (Human), UniProt P41182)
# Assay Info: Immunofluorescence high content imaging of BCL6 degradation in T47D cells
# Type: cell-based
# Experimental Setup: T47D
Reported Property: Dmax

Here are 2 compounds together with their reported answers.
# Compound, Result
measured = [
    ("CCn1c(=O)c(OCC(=O)NC)cc2cc(Nc3nc(N4CCC(OC5CCN(c6cccc7c6C(=O)N(C6CCC(=O)NC6=O)C7=O)CC5)CC4)ncc3Cl)ccc21 (stereo not drawn)", "50 to 70%"),
    ("CNC(=O)COc1cc2cc(Nc3nc(N4CCC(CN5CCC6(CCN(c7cccc8c7C(=O)N(C7CCC(=O)NC7=O)C8=O)CC6)C5)CC4)ncc3Cl)ccc2n(C(C)C)c1=O (stereo not drawn)", "50 to 70%"),
]

Just so you know, measured Dmax for CNC(=O)COc1cc2cc(Nc3nc(N4CCN(CC5CCN(c6cccc(F)c6C(=O)NC6CCC(=O)NC6=O)CC5)CC4)ncc3Cl)ccc2n(C)c1=O (stereo not drawn) came out at < 50%
